Value source: ChEMBL document CHEMBL4382241

Could you please report measured EC50 for the items listed next?
assay-system: Vitamin D3 receptor (Mus musculus, UniProt P48281)
Sequence (P48281 whole entry): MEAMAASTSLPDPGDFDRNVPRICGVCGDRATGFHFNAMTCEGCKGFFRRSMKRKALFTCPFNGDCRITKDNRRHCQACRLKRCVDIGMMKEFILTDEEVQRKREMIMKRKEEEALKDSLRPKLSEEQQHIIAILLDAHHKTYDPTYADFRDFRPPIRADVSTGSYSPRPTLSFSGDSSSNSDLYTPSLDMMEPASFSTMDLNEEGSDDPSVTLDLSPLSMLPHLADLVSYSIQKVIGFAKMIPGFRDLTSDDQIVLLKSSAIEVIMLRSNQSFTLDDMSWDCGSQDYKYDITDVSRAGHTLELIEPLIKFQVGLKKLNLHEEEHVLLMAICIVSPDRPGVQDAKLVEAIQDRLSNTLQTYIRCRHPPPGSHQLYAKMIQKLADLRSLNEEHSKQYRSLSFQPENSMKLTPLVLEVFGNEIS
test-description: Activation of VDR in mouse ASZ001 cells assessed as change in Cyp24A1 mRNA expression after 48 hrs by q-PCR analysis
One number for each entry, in nM.

[
  {
    "chemical-string": "C[C@H](CCCC(C)(C)O)[C@H]1CC[C@H]2[C@@H](Nc3cccc(O)c3)CCC[C@]12C",
    "test-readout": "EC50",
    "unit-abbreviation": "nM",
    "measured-result": 100
  }
]

Please look at the following compound next.
Exercise: I would be grateful if you could share the reported EC50 for C[C@H](CCCC(C)(C)O)[C@H]1CC[C@H]2[C@@H](OC(=O)c3cccc(O)c3)CCC[C@]12C .
Key: 400
